Tested on: M1 macrophages and M2 macrophages differentiated from mouse bone marrow cells
test_protocol: Subtype identification by staining and flow cytometry of M1 and M2 macrophages differentiated from mouse bone marrow cells
Assay type: cell-based, Balb/c mouse
condition_context: M1 vs M2 macrophages from mouse bone marrow cells; general formula (6) dyes (Table 7)
measured_parameter: Resolution ratio R

molecule="CC1(C)C(/C=C/C=C/C=C/C=C2\\N(CCCCS(=O)(=O)[O-])c3ccccc3C2(C)C)=[N+](CCCCS(=O)(=O)[O-])c2ccccc21.[Na+] [(90)]" meas_value=0.321
molecule="CC1(C)C(/C=C/C=C/C=C/C=C2\\N(CCCCS(=O)(=O)[O-])c3ccccc3C2(C)C)=[N+](CCCCS(=O)(=O)[O-])c2ccccc21.[Na+] [(88)]" meas_value=0.241
molecule="CCN1C(=C/C=C/c2n(CC)c3cc(Cl)c(Cl)cc3[n+]2CC)N(CC)c2cc(Cl)c(Cl)cc21 [compound (103)]" meas_value=0.597
molecule="CC1(C)C(/C=C/C=C/C=C/C=C2\\N(CCCCS(=O)(=O)[O-])c3ccc4ccccc4c3C2(C)C)=[N+](CCCCS(=O)(=O)[O-])c2ccc3ccccc3c21.[Na+] [compound (86)]" meas_value=0.602
molecule="CN1/C(=C/C2=C([O-])C(=C/C3=[N+](C)c4ccccc4C3(C)C)/C2=O)C(C)(C)c2ccccc21 [compound (113)]" meas_value=0.857
molecule="CN1\\C(=C/C=C/C=C/C2=[N+](C)c3ccc4ccccc4c3C2(C)C)C(C)(C)c2c1ccc1ccccc21 [(92)]" meas_value=0.534

====

System: M1 macrophages and M2 macrophages differentiated from mouse bone marrow cells
test_protocol: Subtype identification by staining and flow cytometry of M1 and M2 macrophages differentiated from mouse bone marrow cells
Format: cell-based, Balb/c mouse
condition_context: fluorescence intensity at peak top of histogram; compound 1 μM, 37° C., 30 minutes
Threshold 4. Peak position of M1 macrophage below it: Y. Peak position of M1 macrophage at it or above: N.

compound="CCOC(=O)CN1C(=O)/C(=C\\c2cc(Br)c3c(c2)C2CCCC2N3c2ccc(Br)cc2)SC1=S (stereo not drawn)" class=Y
compound="CSc1cccc(N2c3ccc(/C=C4/SC(=S)N(CC(=O)O)C4=O)cc3C3CCCC32)c1 (stereo not drawn)" class=Y
compound="CCN1c2ccc(/C=C3/SC(=S)N(CCC(=O)O)C3=O)cc2C2CCCC21 (stereo not drawn)" class=N
compound="O=C(O)CCCCCN1C(=O)/C(=C\\c2ccc3c(c2)C2CCCC2N3c2ccccc2)SC1=S (stereo not drawn)" class=N
compound="O=C(O)CCN1C(=O)/C(=C\\c2ccc3c(c2)C2CCCC2N3Cc2ccccc2)SC1=S (stereo not drawn)" class=N
compound="CCN1c2ccc(/C=C3/SC(=S)N(CC(=O)O)C3=O)cc2C2CCCC21 (stereo not drawn)" class=Y

====

The entries below come with measured Peak position of M1 macrophage values attached.
System: M1 macrophages and M2 macrophages differentiated from mouse bone marrow cells
test_protocol: Subtype identification by staining and flow cytometry of M1 and M2 macrophages differentiated from mouse bone marrow cells
Format: cell-based, Balb/c mouse
condition_context: mouse bone marrow-derived M1 macrophages; channel listed per compound; general formula (6) dyes (Table 7)
measured_parameter: Peak position of M1 macrophage

molecule="CCN1/C(=C\\C=C\\c2sc3ccccc3[n+]2CC)Sc2ccccc21 [(100)]" meas_value=16.41
molecule="CN1/C(=C\\C=C\\C2=[N+](C)c3ccccc3C2(C)C)C(C)(C)c2ccccc21 [(95)]" meas_value=71.57
molecule="CC1(C)C(/C=C/C=C/C=C/C=C2\\N(CCCCS(=O)(=O)[O-])c3ccccc3C2(C)C)=[N+](CCCCS(=O)(=O)[O-])c2ccccc21.[Na+] [(88)]" meas_value=0.95
molecule="CCC1=C(CC)c2cc3[nH]c(cc4nc(cc5[nH]c(cc1n2)c(CC)c5CC)C(CC)=C4CC)c(CC)c3CC [(1), reference compound]" meas_value=1.70
